Recorded koff by entry
Target: T1, Human TMPRSS2 recombinant protein, extracellular region (N-terminal His tag, C-terminal Strep-tag II) (human, UniProt O15393 106-492)
T1 construct: also called Human TMPRSS2 recombinant proteins; extracellular region of human TMPRSS2
T1 sequence (O15393 other isoform, or with tags, fused parts or gaps limits assumed): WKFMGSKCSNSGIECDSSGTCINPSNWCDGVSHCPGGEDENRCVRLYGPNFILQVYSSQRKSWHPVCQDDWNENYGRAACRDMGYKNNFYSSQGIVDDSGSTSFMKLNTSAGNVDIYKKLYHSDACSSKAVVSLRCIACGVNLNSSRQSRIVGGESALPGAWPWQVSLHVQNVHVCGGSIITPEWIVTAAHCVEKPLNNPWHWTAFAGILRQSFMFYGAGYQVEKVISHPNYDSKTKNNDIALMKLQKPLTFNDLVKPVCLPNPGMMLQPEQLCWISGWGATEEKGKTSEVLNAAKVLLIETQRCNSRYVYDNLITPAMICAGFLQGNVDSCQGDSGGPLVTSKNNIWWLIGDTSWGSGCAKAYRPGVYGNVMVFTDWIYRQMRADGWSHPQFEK
Assay: SPR (BIACore)
API: value field is a number in s⁻¹; no unit string.

Q. Record request: koff value, item humanized 2228-15 IgG4 (S108P) prototype #4 (antibody, V domains shown, also called humanized #4; hu #4) VH: EIQLVQSGAEVKKPGSSVKVSCKASGYTFTDYYINWMRQAPGQGLEWIGWIFPGSGSSYYNAIFKGRATLTVDTSTNTAYMELSSLRSEDTAFYFCARGDFGNFGGFFTYWGQGTLVTVSS VL: DIVMTQSPDSLAVSLGERATINCRASKSVSTSGYSFMHWYQQKPGQPPKLLIYLASNLESGVPDRFSGSGSGTDFTLTIRPLQAEDVAVYYCQHSRELPLTFGQGTKLEIK
A. 0.0001

Q. Field request: koff | item: humanized 752-1 IgG4 (S108P) prototype #1 (antibody, V domains shown, also called humanized #1; hu #1) VH: QVQLVQSGAEVKKPGASVKVSCKASGYTFTSCGISWVRQAPGQGLEWMGEIYPRGGNTYYNEKFKGRVTMTTDTSTSTAYMELRSLRSDDTAVYYCARENGNYDPLFAYWGQGTLVTVSS VL: DIQMTQSPSSLSASVGDRVTITCKASQDINKYIAWYQQKPGKAPKLLIYYTSTLQPGVPSRFSGSGSGTDFTFTISSLQPEDIATYYCLQYYNLWTFGGGTKVEIK
A. 0.00932

Q. Record request: koff value, item humanized 2228-15 IgG4 (S108P) prototype #3 (antibody, V domains shown, also called humanized #3; hu #3) VH: EIQLVQSGAEVKKPGSSVKVSCKASGYTFTDYYINWMRQAPGQGLEWIGWIFPGSGSSYYNAIFKGRATLTVDTSTNTAYMELSSLRSEDTAFYFCARGDFGNFGGFFTYWGQGTLVTVSS VL: DVVMTQSPLSLPVTLGQPASISCRASKSVSTSGYSFMHWFQQRPGQSPRRLIYLASNLESGVPDRFSGSGSGTDFTLKISRVEAEDVGVYYCQHSRELPLTFGGGTKVEIK
A. 0.000774

Hey, just so you know, these numbers are from patent US20250277059A1.
